# assay-protocol: amyloid nucleation score (Sup35N fusion, yeast selection) (log enrichment); library NNK2; higher = more nucleation; inactive = no reads after selection;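 further: zero at mode of non-aggregating sequences after 7 days selection at 30°C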
reported-property: amyloid nucleation score
Please reply with the number alone, leaving off any unit.

- RDKPPVSKYTSRTREFMLVR: 0.987
- FQCDVSCSVYKSWEMFQGIT: 0.164
- FLISSMHWYCHKPCWGFLGQ: -0.569
- FYKTLCKLGWAPWS: -0.744
- VGELVMLFSKYSSVNVRGFA: 3.04
- SGWVLGYSCRKLLLGGLSRG: 1.48

# amyloid nucleation score of ELGFGMMIAPSKGEKGDGML = 3.37

# amyloid nucleation score of YLQLRMLTVMGCLRLCTSMP = 0.386

---

# assay-protocol: amyloid nucleation score (Sup35N fusion, yeast selection) (log enrichment); library NNK1; higher = more nucleation; inactive = no reads after selection
reported-property: amyloid nucleation score

• RTRSGRVICNGFPRYSTTAA = inactive
• CTYTAPYAPSLMPGPRVGYI = inactive
• WYIVGSFTGITLVVNLALNL = inactive

---

# assay-protocol: amyloid nucleation score (Sup35N fusion, yeast selection) (log enrichment); library NNK3; higher = more nucleation; inactive = no reads after selection
reported-property: amyloid nucleation score

Take a look at these entries with their results.
* GSALSSLFQCLLFPLSVSVL | 0.49
* FRFFFRKSQFYNRSLDNLVR | inactive
* SSCPYIFYQLST | inactive
* NYVVSFYISSNFWYDVVNCD | 0.294
* TCFLVFTCVVGV | inactive
* SVEMIPDSGLSVRMGFEGLV | inactive
* RWIFLITILGVLNT | inactive
* IQMGGWIIMYSAGCGA | inactive
* FELRGTLGG | 0.026
* KRSNISV | inactive

# amyloid nucleation score of LELGIYHLMERGIL = inactive

# amyloid nucleation score of DMGKKSSLGNKWVIREAHMG = inactive

# amyloid nucleation score of WNESAGGFRYFPEDAKCDRA = inactive
